Assayed system: T1, human EphA4 (Homo sapiens, UniProt P54764)
T1 construct: made in house; not restated for the human SEAP-His protein
T1 sequence (P54764 20-547): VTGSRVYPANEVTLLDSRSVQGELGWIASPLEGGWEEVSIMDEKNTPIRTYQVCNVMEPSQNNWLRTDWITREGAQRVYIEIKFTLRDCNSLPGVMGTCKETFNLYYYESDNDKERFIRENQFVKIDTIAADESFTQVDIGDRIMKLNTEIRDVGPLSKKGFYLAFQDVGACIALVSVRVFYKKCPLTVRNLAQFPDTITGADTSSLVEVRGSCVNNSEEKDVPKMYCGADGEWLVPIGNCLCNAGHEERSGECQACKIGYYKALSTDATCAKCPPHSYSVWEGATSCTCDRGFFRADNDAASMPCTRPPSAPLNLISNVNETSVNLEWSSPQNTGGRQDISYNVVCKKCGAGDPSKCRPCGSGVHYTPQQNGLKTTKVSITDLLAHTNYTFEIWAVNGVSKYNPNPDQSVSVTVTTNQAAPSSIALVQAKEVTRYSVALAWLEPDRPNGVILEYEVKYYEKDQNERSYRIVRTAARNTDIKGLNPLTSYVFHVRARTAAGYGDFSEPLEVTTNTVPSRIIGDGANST
Assay remarks: Affinity of humanized antibodies by SPR (Biacore T200)
Type: binding
Condition info: human EphA4 extracellular region-SEAP-His; KD=kd/ka
Quantity: Kd
The answer should read as a number with its unit following.

Molecule	Kd
87 (antibody, V domains shown, constant regions without entry; synthetic humanized antibody light chain variable region sequence; synthetic humanized antibody heavy chain variable region sequence) VL: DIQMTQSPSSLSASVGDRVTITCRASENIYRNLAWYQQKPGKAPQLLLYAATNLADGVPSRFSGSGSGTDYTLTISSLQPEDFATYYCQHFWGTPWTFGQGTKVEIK VH: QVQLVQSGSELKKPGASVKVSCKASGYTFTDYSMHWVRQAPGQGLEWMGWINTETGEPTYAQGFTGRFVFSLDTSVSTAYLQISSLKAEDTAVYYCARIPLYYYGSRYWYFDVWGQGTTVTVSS	1.5 nM

Pending molecule:
Recorded Kd of 77 (antibody, V domains shown, synthetic humanized antibody heavy chain variable region sequence; synthetic humanized antibody light chain variable region sequence) VH: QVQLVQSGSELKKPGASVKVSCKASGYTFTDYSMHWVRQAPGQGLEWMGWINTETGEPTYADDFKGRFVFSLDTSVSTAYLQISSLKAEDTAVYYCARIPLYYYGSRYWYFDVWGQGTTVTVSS VL: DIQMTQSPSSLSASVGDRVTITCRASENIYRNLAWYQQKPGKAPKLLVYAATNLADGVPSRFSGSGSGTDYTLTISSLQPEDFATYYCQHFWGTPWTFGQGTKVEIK , please.
1.4 nM

Cited source for all entries: patent US10428140B2
